Where do these numbers come from? They come from PubChem BioAssay (EPA / NIEHS).

# testProtocol: APR_HepG2_p53Act_72hr: Apredica 72-hour HepG2 Assay for p53 Activation (AID 2282923);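 also: average cellular p53 protein immunofluorescence intensity in HepG2 cells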
# experimentalConditions: high-content imaging, actives raise or lower the signal
Calls of active or inactive are those of the source. The calls were made as follows: active = hit-call score of the fitted dose curve at least 0.9, where 1 is the maximum; inactive = score below 0.9.
// classify into 1 (active), 0 (inactive)

See these solved cases before continuing.
{"compound": "Cc1ccc(S(=O)(=O)O)cc1C", "answerLabel": 0}
{"compound": "Cc1ccc(N)cc1O", "answerLabel": 0}
{"compound": "NC(=O)NO", "answerLabel": 0}
{"compound": "O=P(OC(CCl)CCl)(OC(CCl)CCl)OC(CCl)CCl", "answerLabel": 0}
{"compound": "Nc1cccc(N)c1", "answerLabel": 0}

Dear all, I need the recorded test outcome for `CCCC(=O)OCC` , thank you.
0

Any idea what this test logged for CC/C(=C\C(=N/O)C(N)=O)C(C)[N+](=O)[O-] (stereo unspecified) ?
0

Could you please tell me the result logged for `CN(C)c1ccc(Cc2ccc(N(C)C)cc2)cc1` in this assay?
0

Could you check what this test reported for `C1=CCCC=CCCC=CCC1` ?
0

Recorded test outcome, item `CNCc1ccc(NC(=O)c2c[nH]c3c2C(=O)CCC3)cc1`
0

Call for entry `CC(C)=CCCC(C)=CC=O` :
0

Could you kindly confirm the outcome this assay logged for `Cc1ccc(O)cc1` ?
0

Hi team, can someone confirm the assay call for O=C1OC(=O)C2C3C=CC(C3)C12 (stereo unspecified) ?
0

Record request — test call for `CCCCCCCCCCCCCCCO`
0

GET /call?item= Fc1ccccc1[C@@H](F)COC1CCC(Nc2ncnc3[nH]ncc23)CC1 (stereo partly specified) returns the recorded outcome of this test.
1

Recorded test call requested for `CCOc1cccc(-n2cc(C(=O)N3CCN(c4cc(C(=O)O)c5ccccc5c4)CC3)nc2-c2ccc(C)cc2)c1`
1

Identify the outcome logged in this assay for the compound shown: `CCn1nc(Cc2ccccc2)cc1C1CCN(C[C@H]2C[C@H](N(C)[C@@H](C(=O)O)C(C)C)C[C@@H]2c2cccc(F)c2)CC1`
0

---

# Read-out: Cytochrome P450 2C19 (Homo sapiens) (UniProt P33261)
# Sequence (P33261 whole entry, looked up): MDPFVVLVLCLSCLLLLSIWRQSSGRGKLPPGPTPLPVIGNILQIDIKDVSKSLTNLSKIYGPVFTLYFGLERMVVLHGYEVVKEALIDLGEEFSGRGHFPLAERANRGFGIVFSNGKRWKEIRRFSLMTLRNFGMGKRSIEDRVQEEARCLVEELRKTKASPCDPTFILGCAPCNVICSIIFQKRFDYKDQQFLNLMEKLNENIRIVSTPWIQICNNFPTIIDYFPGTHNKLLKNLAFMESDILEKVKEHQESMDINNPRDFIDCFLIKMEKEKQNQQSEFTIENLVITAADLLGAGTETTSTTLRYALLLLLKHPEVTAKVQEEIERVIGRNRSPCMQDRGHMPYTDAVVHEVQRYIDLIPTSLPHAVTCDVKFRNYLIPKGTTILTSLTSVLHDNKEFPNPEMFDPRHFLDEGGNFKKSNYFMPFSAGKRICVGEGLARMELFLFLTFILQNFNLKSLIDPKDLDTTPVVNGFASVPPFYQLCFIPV
# testProtocol: LTEA_HepaRG_CYP2C19: Life Technologies and Expression Analysis (LTEA) Assay for CYP2C19 using HepaRG (AID 2283482)
# experimentalConditions: mRNA level, 48 h; actives raise or lower the signal
Active and inactive are the calls of the source. How the source made its calls: active means hit-call score of the fitted dose curve at least 0.9, where 1 is the maximum; inactive means score below 0.9.

{"structureSmiles": "CC[C@H]1OC(=O)[C@H](C)[C@@H](O[C@H]2C[C@@](C)(OC)[C@@H](O)[C@H](C)O2)[C@H](C)[C@@H](O[C@@H]2O[C@H](C)C[C@H](N(C)C)[C@H]2O)[C@](C)(O)C[C@@H](C)C(=O)[C@H](C)[C@@H](O)[C@]1(C)O", "outcome": "inactive"}
{"structureSmiles": "CCOC(=O)CC(CC(=O)OCC)(OC(C)=O)C(=O)OCC", "outcome": "inactive"}
{"structureSmiles": "CC(C)=CCCC(C)=CC=O", "outcome": "inactive"}

---

# Read-out: CFLAR gene, CFLAR (gene 8837)
# testProtocol: LTEA_HepaRG_CFLAR: Life Technologies and Expression Analysis (LTEA) Assay for CFLAR gene using HepaRG (AID 2283455)
# experimentalConditions: mRNA level, 48 h; actives raise or lower the signal
Calls of active or inactive are those of the source. How the source made its calls: active means hit-call score of the fitted dose curve at least 0.9, where 1 is the maximum; inactive means score below 0.9.
Give one outcome, nothing more. List: active, inactive

Solved cases below.
{"compound": "COc1cccc(-c2ccc(/C=C\\CN3CCCCCC3)cc2Cl)c1", "answerLabel": "inactive"}
{"compound": "CCOc1cccc(-n2cc(C(=O)N3CCN(c4cc(C(=O)O)c5ccccc5c4)CC3)nc2-c2ccc(C)cc2)c1", "answerLabel": "active"}
{"compound": "Nc1nc2ncc(CNc3ccc(C(=O)N[C@@H](CCC(=O)O)C(=O)O)cc3)nc2c(=O)[nH]1", "answerLabel": "inactive"}
{"compound": "CCOCCO", "answerLabel": "inactive"}
{"compound": "CCn1nc(Cc2ccccc2)cc1C1CCN(C[C@H]2C[C@H](N(C)[C@@H](C(=O)O)C(C)C)C[C@@H]2c2cccc(F)c2)CC1", "answerLabel": "inactive"}
{"compound": "O=C1CCC(N2C(=O)c3ccccc3C2=O)C(=O)N1 (configuration not stated)", "answerLabel": "inactive"}

Then there is this compound:
How was `Clc1nc(Cl)c(Cl)c(Cl)c1Cl` classified in this test?
inactive

---

# tgt: Heat shock factor protein 1 (Homo sapiens) (UniProt Q00613)
# Sequence (Q00613 whole entry, looked up): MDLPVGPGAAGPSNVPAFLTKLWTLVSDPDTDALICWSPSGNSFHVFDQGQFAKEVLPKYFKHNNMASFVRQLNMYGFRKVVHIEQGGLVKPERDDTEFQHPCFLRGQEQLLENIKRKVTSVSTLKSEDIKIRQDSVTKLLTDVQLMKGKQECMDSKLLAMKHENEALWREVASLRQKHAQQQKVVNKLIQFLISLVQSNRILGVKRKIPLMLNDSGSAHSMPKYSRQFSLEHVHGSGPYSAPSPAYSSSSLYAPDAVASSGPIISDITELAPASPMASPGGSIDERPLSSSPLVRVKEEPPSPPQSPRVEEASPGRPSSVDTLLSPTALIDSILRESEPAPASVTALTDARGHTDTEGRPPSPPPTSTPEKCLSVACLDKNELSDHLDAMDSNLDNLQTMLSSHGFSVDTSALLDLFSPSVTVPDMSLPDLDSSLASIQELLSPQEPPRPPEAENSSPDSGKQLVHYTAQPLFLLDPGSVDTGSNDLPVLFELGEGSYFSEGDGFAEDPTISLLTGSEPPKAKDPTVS
# testProtocol: ATG_HSE_CIS: Attagene CIS-FACTORIAL HepG2 Assay for human Heat Shock Transcription Factor 1 (HSE) (AID 2282953)
# experimentalConditions: HepG2 HSE cis-reporter, Attagene RNA transcription; actives raise or lower the signal
Calls of active or inactive are those of the source. The calls were made as follows: active = hit-call score of the fitted dose curve at least 0.9, where 1 is the maximum; inactive = score below 0.9.
Outcome field: choose from YES = active, NO = inactive

Please review the entries below; each comes with its answer.
{"compound": "CNCc1ccc(NC(=O)c2c[nH]c3c2C(=O)CCC3)cc1", "answerLabel": "NO"}
{"compound": "CCOC(=O)CC(CC(=O)OCC)(OC(C)=O)C(=O)OCC", "answerLabel": "NO"}
{"compound": "CC(O)CN(CCN(CC(C)O)CC(C)O)CC(C)O (stereo unspecified)", "answerLabel": "NO"}
{"compound": "Cc1ccc(S(=O)(=O)O)cc1C", "answerLabel": "NO"}
{"compound": "CC(=O)c1ccc2c(c1)[C@H](NC(=O)c1ccc(F)cc1)[C@@H](O)C(C)(C)O2", "answerLabel": "NO"}

Per the assay record, what outcome was assigned to `CCCCCCCCO` ?
NO

Per the records of this test, what outcome belongs to Fc1ccccc1[C@@H](F)COC1CCC(Nc2ncnc3[nH]ncc23)CC1 (stereo partly specified) ?
YES

Recorded test outcome, item `COc1cccc(-c2ccc(/C=C\CN3CCCCCC3)cc2Cl)c1`
NO

Could you please tell me the result logged for O=c1n(CC2CO2)c(=O)n(CC2CO2)c(=O)n1CC1CO1 (stereo unspecified) in this assay?
NO

Hi, do you know how `CCOCCOCCOCCO` came out in this test?
NO

Name the outcome recorded for `COCCOCCOCCOC` in the assay.
NO

Please let me know the test result on file for `CC(C)c1cccc(C(C)C)c1N1C(=O)c2ccc(O)cc2C1=O` .
YES

Can you look up the reported call for CCCCC(CC)COC(=O)c1ccc(C(=O)OCC(CC)CCCC)cc1 (stereo unspecified) for me?
NO

Short answer needed: outcome of this test for `CC(C)=CCCC(C)=CC=O` ?
NO

Identify the outcome logged in this assay for the compound shown: CCCCC(CC)COC(=O)CCCCCCCCC(=O)OCC(CC)CCCC (stereo unspecified)
NO

---

# Read-out: Human Leukocyte Antigen - DR isotype (HLADR), HLA-DRA (gene 3122)
# testProtocol: BSK_BE3C_HLADR: BioMAP Diversity Plus: BE3C Assay for Human Leukocyte Antigen - DR isotype (HLADR) Biomarker Activity (AID 2283032)
# experimentalConditions: primary human bronchial epithelial cells; actives raise or lower the signal
The source made the active and inactive calls. The calls were made as follows: active = hit-call score of the fitted dose curve at least 0.9, where 1 is the maximum; inactive = score below 0.9.
Allowed answers: 1 (active), 0 (inactive)

Look over these answered cases.
{"structureSmiles": "CCN(C(=O)c1cc(C)cc(OC[C@H](C)Nc2ccncc2)c1)C(C)C", "answerLabel": 0}
{"structureSmiles": "COc1ccc2sc(C(=O)Nc3nnn[nH]3)c(OC(C)C)c2c1", "answerLabel": 1}

Assay outcome for `CCn1nc(Cc2ccccc2)cc1C1CCN(C[C@H]2C[C@H](N(C)[C@@H](C(=O)O)C(C)C)C[C@@H]2c2cccc(F)c2)CC1` : what was it?
0

What is the recorded call for this compound in the test? `COc1ccc(/C=C/S(=O)(=O)NC(=O)c2ccc(C)cc2Cl)cc1`
0

---

# Read-out: UDP glucuronosyltransferase (UGT1A1), UGT1A1 (gene 54658)
# testProtocol: LTEA_HepaRG_UGT1A1: Life Technologies and Expression Analysis (LTEA) Assay for UDP glucuronosyltransferase (UGT1A1) using HepaRG (AID 2283538)
# experimentalConditions: mRNA level, 48 h; actives raise or lower the signal
Activity calls are given as the source filed them. Rule for the calls: active = hit-call score of the fitted dose curve at least 0.9, where 1 is the maximum; inactive = score below 0.9.
measureName: AC50

# example entries with known answers
{"compound": "COCCOCCOCCOC", "measuredValue": "inactive"}
{"compound": "CC(C)=CCC/C(C)=C\\CO", "measuredValue": "inactive"}
{"compound": "COC(=O)c1c(Cl)c(Cl)c(C(=O)OC)c(Cl)c1Cl", "measuredValue": "inactive"}
{"compound": "CC1(C)C(=O)N(Br)C(=O)N1Br", "measuredValue": "21.4 µM (active)"}
{"compound": "CC1=CC(=O)CC(C)(C)C1", "measuredValue": "inactive"}
{"compound": "C=CC(=C)CCC=C(C)C", "measuredValue": "inactive"}
{"compound": "CC(C)=CCCC(C)=CC=O", "measuredValue": "inactive"}
{"compound": "COc1ccc2sc(C(=O)Nc3nnn[nH]3)c(OC(C)C)c2c1", "measuredValue": "12.9 µM (active)"}
{"compound": "CCOCCOCCOCCO", "measuredValue": "inactive"}
{"compound": "CN(C)c1ccc(N=NS(=O)(=O)O)cc1", "measuredValue": "inactive"}

For every item in the list below, what is its measured AC50?
1. On1ccccc1=S
2. CCCCC(CC)COC(=O)c1ccc(C(=O)OCC(CC)CCCC)cc1 (stereo unspecified)
3. CCC(C)(C)C(=O)O[C@H]1C[C@@H](C)C=C2C=C[C@H](C)[C@H](CC[C@@H]3C[C@@H](O)CC(=O)O3)[C@H]21
4. C1N2CN3CN1CN(C2)C3
5. CC(C)CCO
6. CCOC(=O)CC(CC(=O)OCC)(OC(C)=O)C(=O)OCC
7. O=C1OC(=O)C2C3C=CC(C3)C12 (stereo unspecified)
8. Cc1[nH]cnc1C[C@H]1CCc2c(C)c3ccccc3n2C1=O

1: inactive; 2: inactive; 3: inactive; 4: inactive; 5: inactive; 6: inactive; 7: inactive; 8: 64.3 µM (active)

Provide AC50 values for the following items, in order.
1. CC(=O)OCCC(C)C
2. Nc1ccc(Nc2ccccc2)cc1
3. CC(C)=CCC/C(C)=C/CO

["inactive", "50 µM (active)", "inactive"]

Dear colleague, could you send me AC50 for each of the items below? Thanks.
1. COc1ccc(/C=C/S(=O)(=O)NC(=O)c2ccc(C)cc2Cl)cc1
2. CCNc1ccccc1
3. COc1cccc(-c2ccc(/C=C\CN3CCCCCC3)cc2Cl)c1
4. CC(C)CCCCCCCOC(=O)CCCCC(=O)OCCCCCCCC(C)C
5. C=CCCCCCCCCC(=O)O
6. O=c1n(CC2CO2)c(=O)n(CC2CO2)c(=O)n1CC1CO1 (stereo unspecified)
7. O=C(OC[C@H]1O[C@@H](OC(=O)c2cc(O)c(O)c(OC(=O)c3cc(O)c(O)c(O)c3)c2)[C@H](OC(=O)c2cc(O)c(O)c(OC(=O)c3cc(O)c(O)c(O)c3)c2)[C@@H](OC(=O)c2cc(O)c(O)c(OC(=O)c3cc(O)c(O)c(O)c3)c2)[C@@H]1OC(=O)c1cc(O)c(O)c(OC(=O)c2cc(O)c(O)c(O)c2)c1)c1cc(O)c(O)c(OC(=O)c2cc(O)c(O)c(O)c2)c1
8. CN(C)c1ccc(Cc2ccc(N(C)C)cc2)cc1

1: inactive; 2: inactive; 3: 83.4 µM (active); 4: inactive; 5: inactive; 6: inactive; 7: 4.66 µM (active); 8: 11.5 µM (active)

Please state AC50 for every compound in the list that follows.
1. CCn1nc(Cc2ccccc2)cc1C1CCN(C[C@H]2C[C@H](N(C)[C@@H](C(=O)O)C(C)C)C[C@@H]2c2cccc(F)c2)CC1
2. Cn1cnc([N+](=O)[O-])c1Sc1ncnc2nc[nH]c12
3. C[C@](N)(Cc1ccc(O)c(O)c1)C(=O)O
4. O=C1CCC(N2C(=O)c3ccccc3C2=O)C(=O)N1 (stereo unspecified)
5. Fc1ccccc1[C@@H](F)COC1CCC(Nc2ncnc3[nH]ncc23)CC1 (stereo partly specified)
6. COC(=O)c1ccccc1O
7. Clc1nc(Cl)c(Cl)c(Cl)c1Cl
8. CCOC(=O)c1ccc(C2CCC(NC[C@H](O)COc3ccc(O)c(NS(C)(=O)=O)c3)CC2)cc1 (stereo partly specified)

1: inactive; 2: 0.754 µM (active); 3: inactive; 4: inactive; 5: 68 µM (active); 6: inactive; 7: inactive; 8: inactive

Quick batch: AC50 for everything below.
1. CC(C)CC(C)(O)C#CC(C)(O)CC(C)C (stereo unspecified)
2. CCCCCCCCCCCCCCCO
3. CCCN(C1CCN(C(=O)C2CCNCC2)CC1)[C@@H]1CCc2ccc(OC)cc2C1

["inactive", "inactive", "69.3 µM (active)"]

Reported AC50, compound `O=C(O)c1cccc(N(Cc2cccnc2)c2ccc(OC(F)F)c(OC(F)F)c2)c1` : ____
25 µM (active)
